Attribution: paper PMC7835950

Target: OGDH (Rattus norvegicus)
Sequence (Q5XI78 41-1023): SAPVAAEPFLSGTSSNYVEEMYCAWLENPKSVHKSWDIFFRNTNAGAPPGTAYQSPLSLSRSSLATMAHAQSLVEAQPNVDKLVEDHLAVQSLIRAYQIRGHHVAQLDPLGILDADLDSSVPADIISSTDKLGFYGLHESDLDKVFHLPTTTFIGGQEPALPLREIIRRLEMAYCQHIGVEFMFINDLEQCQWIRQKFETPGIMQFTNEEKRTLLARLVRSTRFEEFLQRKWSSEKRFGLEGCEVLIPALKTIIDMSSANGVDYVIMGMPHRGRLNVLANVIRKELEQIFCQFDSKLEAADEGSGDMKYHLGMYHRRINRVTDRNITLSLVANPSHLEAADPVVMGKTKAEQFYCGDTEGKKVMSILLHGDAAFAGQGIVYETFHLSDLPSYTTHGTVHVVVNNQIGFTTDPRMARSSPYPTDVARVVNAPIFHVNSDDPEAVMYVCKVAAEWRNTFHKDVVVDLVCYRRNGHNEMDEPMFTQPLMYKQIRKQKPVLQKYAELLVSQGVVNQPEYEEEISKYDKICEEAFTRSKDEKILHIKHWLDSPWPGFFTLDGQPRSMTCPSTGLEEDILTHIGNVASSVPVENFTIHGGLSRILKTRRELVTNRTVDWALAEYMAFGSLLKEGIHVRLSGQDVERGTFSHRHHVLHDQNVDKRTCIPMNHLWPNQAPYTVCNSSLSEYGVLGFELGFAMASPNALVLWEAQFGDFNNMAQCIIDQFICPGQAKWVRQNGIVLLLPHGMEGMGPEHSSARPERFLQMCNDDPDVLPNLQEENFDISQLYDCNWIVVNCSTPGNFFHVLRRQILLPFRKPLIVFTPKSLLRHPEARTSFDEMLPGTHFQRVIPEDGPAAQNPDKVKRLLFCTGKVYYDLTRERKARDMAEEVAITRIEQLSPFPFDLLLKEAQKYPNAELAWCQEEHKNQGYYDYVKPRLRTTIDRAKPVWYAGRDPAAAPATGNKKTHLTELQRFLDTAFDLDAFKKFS
Sequence (Q01205 69-454 partner): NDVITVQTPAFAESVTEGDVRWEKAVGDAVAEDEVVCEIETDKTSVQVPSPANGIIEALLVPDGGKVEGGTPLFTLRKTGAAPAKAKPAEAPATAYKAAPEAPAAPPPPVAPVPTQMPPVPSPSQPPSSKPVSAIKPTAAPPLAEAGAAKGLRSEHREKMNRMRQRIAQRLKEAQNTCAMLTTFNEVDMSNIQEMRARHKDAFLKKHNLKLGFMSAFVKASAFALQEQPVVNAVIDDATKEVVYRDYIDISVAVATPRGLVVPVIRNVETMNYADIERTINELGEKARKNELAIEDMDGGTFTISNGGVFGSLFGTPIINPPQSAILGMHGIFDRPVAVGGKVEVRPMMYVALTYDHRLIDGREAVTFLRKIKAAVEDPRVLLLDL
Sequence (Q6P6R2 36-509 partner): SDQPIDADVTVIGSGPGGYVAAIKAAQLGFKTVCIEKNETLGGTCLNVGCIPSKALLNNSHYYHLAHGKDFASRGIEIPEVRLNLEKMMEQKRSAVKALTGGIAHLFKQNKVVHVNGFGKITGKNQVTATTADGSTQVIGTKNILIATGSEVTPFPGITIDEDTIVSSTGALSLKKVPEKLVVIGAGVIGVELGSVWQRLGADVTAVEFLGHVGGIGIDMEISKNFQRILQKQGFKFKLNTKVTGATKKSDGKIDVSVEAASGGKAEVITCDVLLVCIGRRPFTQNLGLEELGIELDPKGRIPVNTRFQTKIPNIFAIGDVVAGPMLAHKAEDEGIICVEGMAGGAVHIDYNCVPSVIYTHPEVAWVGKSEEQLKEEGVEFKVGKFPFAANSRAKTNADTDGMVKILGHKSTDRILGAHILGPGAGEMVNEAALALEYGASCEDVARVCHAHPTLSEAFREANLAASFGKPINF
Assay: OGDH reaction (OG saturation) catalyzed by the enzyme preparation from rat liver
Type: biochemical
Parameters: the tissue fractions with the complexes enriched to a degree allowing for a robust detection of the enzymatic activities, have been used; from tissue
Settings: Ki, EH, Eadie-Hofstee
measurement-type: Ki (µM)
# number only, unit µM dropped from output

Incoming: # get_value(readout='Ki', item= O=C(O)CCC(=O)P(=O)(O)O [SP, succinyl phosphonate] )
Outgoing: 7.7

###

Below, each of the compounds is paired with its reported pKi value.
Biological target: UniProt:Q5XI78
Experiment: OGDH reaction (OG saturation) catalyzed by the enzyme preparation from rat liver
Type: biochemical
Design: the tissue fractions with the complexes enriched to a degree allowing for a robust detection of the enzymatic activities, have been used; from tissue
Settings: average of MM, LB, EH, read-out: Ki, Average
The meaning of pKi here: minus log10 of the concentration in molar units.

compound	value
O=C(O)CCCC(=O)P(=O)(O)O [GP, glutaryl phosphonate]	5.20

Incoming: # get_value(readout='pKi', item= O=C(O)CCCCC(=O)P(=O)(O)O [AP, adipoyl phosphonate] )
Outgoing: 3.44

###

Target: UniProt Q5XI78
Experiment: OGDH reaction (OG saturation) catalyzed by the enzyme preparation from rat liver
Type: biochemical
Design: the tissue fractions with the complexes enriched to a degree allowing for a robust detection of the enzymatic activities, have been used; from tissue
Conditions: Lineweaver-Burk, read-out: Ki, LB
Below, each of the compounds is paired with its reported Ki value.
Field: value (include unit after the number)

compound	target-or-test-system	Ki
O=C(O)CCCCC(=O)P(=O)(O)O [AP, adipoyl phosphonate]	UniProt Q5XI78	361 µM

Incoming: # get_value(readout='Ki', item= O=C(O)CCCC(=O)P(=O)(O)O [GP, glutaryl phosphonate] )
Outgoing: 5.6 µM
